FYI, the data here is from ChEMBL document CHEMBL1201862.

System: SW-620
Assay Protocol: NCI tumour cell line growth inhibition, 48 h
Calls of active or inactive are those of the source. No stated cut-off is given here; in the data, active = GI50 up to about 1.1 µM and inactive = higher.
Result Type: GI50

Solved cases (3 shown):
# Compound, Target System, GI50
measured = [
    ("O=c1c2ccccc2[nH]c(=S)n1-c1ccc(Br)cc1", "SW-620", "87.1 µM (inactive)"),
    ("Cc1ccc(S(=O)(=O)NNC(=S)Nc2cccc3ccccc23)cc1", "SW-620", "> 100 µM (inactive)"),
    ("O=C(/C=C\\c1ccccc1O)c1ccc(O)cc1O", "SW-620", "10.8 µM (inactive)"),
]

Determine from records and report GI50 for N=C(N)NS(=O)(=O)c1ccc(NC(=O)c2c3ccccc3nc3ccccc23)cc1 > 100 µM (inactive)

Determine from records and report GI50 for NC(=S)C1=C(N)Oc2c(c(=O)oc3ccccc23)C1c1ccc(Br)cc1 (configuration not stated) > 100 µM (inactive)

Determine from records and report GI50 for O=c1ccc2ccc(CBr)cc2o1 1.72 µM (inactive)

Determine from records and report GI50 for Nc1nc2c(c(=O)[n-]1)[n+](CCO)cn2C1OC(CO)C(O)C1O (configuration not stated) > 100 µM (inactive)
